Numbers sourced from ChEMBL document CHEMBL1201861.

Listed next: entries and their corresponding pIC50.
tested on: OE19; test: cells; type: functional, cell-based; conditions: Homo sapiens;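 also: growth inhibition of OE19 cells, measured through a cell viability read-out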
Description: SANGER: Inhibition of human OE19 cell growth in a cell viability assay.
pIC50: −log10 of the molar value.

NC(=O)c1ncn([C@@H]2O[C@H](COP(=O)(O)O)[C@@H](O)[C@H]2O)c1N	< 2.70
CC(O)(CS(=O)(=O)c1ccc(F)cc1)C(=O)Nc1ccc(C#N)c(C(F)(F)F)c1 (stereo not drawn) [BICALUTAMIDE]	< 5.99

Kindly consider the entry below.
query: // lookup pIC50 for `C/C(O)=C(\C#N)C(=O)Nc1cc(Br)ccc1Br`
result: < 4.80

---

test system: MLMA; test: cells; assay type: functional, cell-based; settings: Homo sapiens;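 also: growth inhibition of MLMA cells (human), determined through a cell viability readout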
Description: SANGER: Inhibition of human MLMA cell growth in a cell viability assay.
MEASURE: pIC50
Value format note: pIC50 is -log10 of concentration (mol/L); just state the number.

Answered cases to consult:
CC(C)=CC[C@@H](O)C1=CC(=O)c2c(O)ccc(O)c2C1=O [SHIKONIN]	6.27
Fc1cc(-c2cc[nH]/c(=N/c3ccc(-n4cnc(N5CCOCC5)n4)cc3)n2)cc(N2CCOCC2)c1	6.31

Kindly consider the entry below.
query: // lookup pIC50 for CCNC(=O)c1noc(-c2cc(C(C)C)c(O)cc2O)c1-c1ccc(CN2CCOCC2)cc1 [LUMINESPIB]
result: 7.34

---

Listed next: entries and their corresponding pIC50.
test system: BT-474; experiment: cells; type: functional, cell-based; details: Homo sapiens
Description: SANGER: Inhibition of human BT-474 cell growth in a cell viability assay.
Value format note: pIC50 is -log10 of concentration (mol/L); just state the number.

CC[C@]1(O)C[C@@H]2CN(CCc3c([nH]c4ccccc34)[C@@](C(=O)OC)(c3cc4c(cc3OC)N(C)[C@H]3[C@@](O)(C(=O)OC)[C@H](OC(C)=O)[C@]5(CC)C=CCN6CC[C@]43[C@@H]65)C2)C1	7.03
CC(C)=CC[C@@H](O)C1=CC(=O)c2c(O)ccc(O)c2C1=O	6.68

query: // lookup pIC50 for `CO[C@@]12[C@H](COC(N)=O)C3=C(C(=O)C(C)=C(N)C3=O)N1C[C@@H]1N[C@@H]12`
result: 5.58

---

system: NCI-H1299; experiment: cells; format: functional, cell-based; conditions: Homo sapiens;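 also: growth inhibition of human NCI-H1299 cells, read out by a cell viability assay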
Description: SANGER: Inhibition of human NCI-H1299 cell growth in a cell viability assay.
MEASURE: IC50

NC(=O)c1ncn([C@@H]2O[C@H](COP(=O)(O)O)[C@@H](O)[C@H]2O)c1N	> 2000 µM
Cn1cc(/C=C2\C(=O)Nc3cccnc32)c2ccccc21	> 2 µM
CC[C@]1(O)C[C@@H]2CN(CCc3c([nH]c4ccccc34)[C@@](C(=O)OC)(c3cc4c(cc3OC)N(C)[C@H]3[C@@](O)(C(=O)OC)[C@H](OC(C)=O)[C@]5(CC)C=CCN6CC[C@]43[C@@H]65)C2)C1 [VINBLASTINE]	0.0164 µM
COc1cc(Nc2c(C#N)cnc3cc(OCCCN4CCN(C)CC4)c(OC)cc23)c(Cl)cc1Cl [BOSUTINIB]	> 2 µM

Kindly consider the entry below.
query: // lookup IC50 for C[C@]1(c2nc3c(C(N)=O)cccc3[nH]2)CCCN1 [VELIPARIB]
result: > 5 µM

---

system: NCCIT; test: SANGER: Inhibition of human NCCIT cell growth in a cell viability assay.; format: functional, cell-based
MEASURE: IC50

Answered cases to consult:
CCNc1cc(N[C@H]2CC[C@@H](O)CC2)nc(Nc2ccc3c(ccn3Cc3ccccc3)c2)n1	> 5.12 µM
Cc1ccc(NC(=O)c2cccc(C(C)(C)C#N)c2)cc1Nc1ccc2ncn(C)c(=O)c2c1	> 4 µM

query: // lookup IC50 for Cc1nc(Nc2ncc(C(=O)Nc3c(C)cccc3Cl)s2)cc(N2CCN(CCO)CC2)n1 [DASATINIB]
result: > 1.28 µM

---

system: LAN-6; experiment: cells; assay type: functional, cell-based; settings: Homo sapiens;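 also: growth inhibition of LAN-6 cells, determined with a cell viability assay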
Description: SANGER: Inhibition of human LAN-6 cell growth in a cell viability assay.
pIC50: −log10 of the molar value.
MEASURE: pIC50

Cc1ccc(NC(=O)c2cccc(C(C)(C)C#N)c2)cc1Nc1ccc2ncn(C)c(=O)c2c1	6.17

query: // lookup pIC50 for `Cn1cc(/C=C2\C(=O)Nc3cccnc32)c2ccccc21`
result: < 5.70

query: // lookup pIC50 for `C/C=C(/C)C(=O)O[C@H]1C(C)=C2[C@H]([C@@H]1OC(=O)CCCCCCC)[C@@](C)(OC(C)=O)C[C@H](OC(=O)CCC)[C@@]1(O)[C@H]2OC(=O)[C@@]1(C)O`
result: < 6.29

query: // lookup pIC50 for `Cc1nc(Nc2ncc(C(=O)Nc3c(C)cccc3Cl)s2)cc(N2CCN(CCO)CC2)n1`
result: < 5.89

query: // lookup pIC50 for `COc1cc(Nc2c(C#N)cnc3cc(OCCCN4CCN(C)CC4)c(OC)cc23)c(Cl)cc1Cl`
result: < 5.70

---

tested on: SW1463; test: cells; assay type: functional, cell-based; conditions: Homo sapiens
Description: SANGER: Inhibition of human SW1463 cell growth in a cell viability assay.
MEASURE: IC50 (µM)
Dear colleague, please return just the value in µM, with no unit written.

Fc1cc(-c2cc[nH]/c(=N/c3ccc(-n4cnc(N5CCOCC5)n4)cc3)n2)cc(N2CCOCC2)c1	0.649

Kindly consider the entry below.
query: Give SW1463 IC50 for CC(C)=CC[C@@H](O)C1=CC(=O)c2c(O)ccc(O)c2C1=O [SHIKONIN]
result: 8.61

---

tested on: NCI-H1417; assay: cells; format: functional, cell-based; details: Homo sapiens;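 also: human NCI-H1417 cells, growth inhibition determined with a cell viability readout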
Description: SANGER: Inhibition of human NCI-H1417 cell growth in a cell viability assay.
MEASURE: IC50

C/C=C(/C)C(=O)O[C@H]1C(C)=C2[C@H]([C@@H]1OC(=O)CCCCCCC)[C@@](C)(OC(C)=O)C[C@H](OC(=O)CCC)[C@@]1(O)[C@H]2OC(=O)[C@@]1(C)O	> 512 nM
Cc1nc(Nc2ncc(C(=O)Nc3c(C)cccc3Cl)s2)cc(N2CCN(CCO)CC2)n1	> 1280 nM
CCn1c(-c2nonc2N)nc2cnc(Oc3cccc(NC(=O)c4ccc(OCCN5CCOCC5)cc4)c3)cc21 [GSK-269962A]	> 2500 nM
CO[C@@]12[C@H](COC(N)=O)C3=C(C(=O)C(C)=C(N)C3=O)N1C[C@@H]1N[C@@H]12	237 nM

Kindly consider the entry below.
query: Give NCI-H1417 IC50 for CC(O)(CS(=O)(=O)c1ccc(F)cc1)C(=O)Nc1ccc(C#N)c(C(F)(F)F)c1 (stereo not given) [BICALUTAMIDE]
result: > 1020 nM

---

test system: NCI-H520; test: cells; assay type: functional, cell-based; details: Homo sapiens;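 also: growth inhibition of NCI-H520 cells, measured by a cell viability assay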
Description: SANGER: Inhibition of human NCI-H520 cell growth in a cell viability assay.
Listed next: entries and their corresponding IC50.
Dear colleague, please return just the value in nM, with no unit written.

CCNC(=O)c1noc(-c2cc(C(C)C)c(O)cc2O)c1-c1ccc(CN2CCOCC2)cc1	26.6

Kindly consider the entry below.
query: // lookup IC50 for `C[C@]12O[C@H](C[C@]1(O)CO)n1c3ccccc3c3c4c(c5c6ccccc6n2c5c31)CNC4=O`
result: 203

---

Listed next: entries and their corresponding IC50.
test system: A-431; experiment: cells; format: functional, cell-based; conditions: Homo sapiens;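 also: growth inhibition of A-431 cells, determined with a cell viability read-out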
Description: SANGER: Inhibition of human A431 cell growth in a cell viability assay.

Cn1c(=O)n(-c2ccc(C(C)(C)C#N)cc2)c2c3cc(-c4cnc5ccccc5c4)ccc3ncc21 [DACTOLISIB]	0.09 µM
Cn1cc(/C=C2\C(=O)Nc3cccnc32)c2ccccc21	> 2 µM
C/C(O)=C(\C#N)C(=O)Nc1cc(Br)ccc1Br	> 16 µM
CC(C)=CC[C@@H](O)C1=CC(=O)c2c(O)ccc(O)c2C1=O [SHIKONIN]	0.107 µM
C[C@]1(c2nc3c(C(N)=O)cccc3[nH]2)CCCN1 [VELIPARIB]	> 5 µM

Kindly consider the entry below.
query: // lookup IC50 for CC[C@]1(O)C[C@@H]2CN(CCc3c([nH]c4ccccc34)[C@@](C(=O)OC)(c3cc4c(cc3OC)N(C)[C@H]3[C@@](O)(C(=O)OC)[C@H](OC(C)=O)[C@]5(CC)C=CCN6CC[C@]43[C@@H]65)C2)C1 [VINBLASTINE]
result: > 0.1 µM

---

tested on: KU812 cell line; assay: cells; format: functional, cell-based; conditions: Homo sapiens;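 also: growth inhibition of KU812 cells, read out with a cell viability assay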
Description: SANGER: Inhibition of human KU812 cell growth in a cell viability assay.
Listed next: entries and their corresponding IC50.
Dear colleague, please return just the value in nM, with no unit written.

CC[C@@H]1C(=O)N(C)c2cnc(Nc3ccc(C(=O)NC4CCN(C)CC4)cc3OC)nc2N1C1CCCC1	120

query: // lookup IC50 for `CC(=O)c1c(C)c2cnc(Nc3ccc(N4CCNCC4)cn3)nc2n(C2CCCC2)c1=O`
result: 1890

---

tested on: L-428; test: cells; assay type: functional, cell-based; conditions: Homo sapiens
Description: SANGER: Inhibition of human L-428 cell growth in a cell viability assay.
Listed next: entries and their corresponding IC50.

Fc1cc(-c2cc[nH]/c(=N/c3ccc(-n4cnc(N5CCOCC5)n4)cc3)n2)cc(N2CCOCC2)c1	649 nM
CCNc1cc(N[C@H]2CC[C@@H](O)CC2)nc(Nc2ccc3c(ccn3Cc3ccccc3)c2)n1	> 5120 nM
Cc1nc(Nc2ncc(C(=O)Nc3c(C)cccc3Cl)s2)cc(N2CCN(CCO)CC2)n1 [DASATINIB]	> 1280 nM

query: // lookup IC50 for `O=c1[nH]c2ccccc2n1C1CCN(Cc2ccc(-c3nc4cc5[nH]cnc5cc4nc3-c3ccccc3)cc2)CC1`
result: > 2560 nM

query: // lookup IC50 for C[C@]12O[C@H](C[C@]1(O)CO)n1c3ccccc3c3c4c(c5c6ccccc6n2c5c31)CNC4=O [LESTAURTINIB]
result: > 2000 nM

query: // lookup IC50 for Cc1n[nH]c2ccc(-c3cncc(OC[C@@H](N)Cc4c[nH]c5ccccc45)c3)cc12 [A-443654]
result: > 1020 nM

query: // lookup IC50 for COc1cc(C)c(Sc2cnc(NC(=O)c3ccc(CNC(C)C(C)(C)C)cc3)s2)cc1C(=O)N1CCN(C(C)=O)CC1 (centres undefined)
result: > 10200 nM

query: // lookup IC50 for CCCS(=O)(=O)Nc1ccc(F)c(C(=O)c2c[nH]c3ncc(Cl)cc23)c1F [PLX-4720]
result: > 10000 nM

query: // lookup IC50 for CC(O)(CS(=O)(=O)c1ccc(F)cc1)C(=O)Nc1ccc(C#N)c(C(F)(F)F)c1 (centres undefined) [BICALUTAMIDE]
result: > 1020 nM
